test system: viable cells in culture; experiment: Cell viability assay (CellTiter-Glo Luminescent Cell Viability Assay, ATP quantitation, percent of vehicle control)
Below, each entry is listed alongside its reported Average Cell Viability after 24 Hours (% DMSO).
Express the result in % DMSO but write the number alone.

Can you share its Average Cell Viability after 24 Hours (% DMSO)? I mean this molecule: `Cc1ccc(OCC(=O)N/N=C/c2c(C)nn(-c3ccccc3)c2O)c(C)c1`
81.33

Also `COc1ccc(-c2cc(O)n(-c3ccc([N+](=O)[O-])cc3)n2)cc1` , if possible.
79.49

Also CCOC(=O)C1=C(C)NC2=C(C(=O)CC(c3ccccc3)C2)C1c1cccc(F)c1 (centres unmarked) , if possible.
80.52

Also `Cc1nc(-n2nc(C)c(CCC(=O)N3CCCCC3)c2O)sc1C` , if possible.
81.10

Also Cc1ccc2ccc(C(Nc3ccccn3)c3ccccc3Cl)c(O)c2n1 (centres unmarked) , if possible.
79.43

###

system: viable cells in culture; assay: Cell viability assay (CellTiter-Glo Luminescent Cell Viability Assay, ATP quantitation, percent of vehicle control)
readout_type: Average Cell Viability after 24 Hours (% DMSO)
Express the result in % DMSO but write the number alone.

Answered examples (3):
INSERT INTO assay_data (compound, reading_unit, observed) VALUES
  ('CSc1nc(C2CC2)cc(-c2ccccc2)c1C#N', '% DMSO', 90.02),
  ('CCOc1cc(Br)cc(/C=N/NC(=O)COc2cccc(C)c2)c1O', '% DMSO', 57.61),
  ('c1ccc(-n2ncc3c2-c2[nH]c4ccccc4c2CC3)cc1', '% DMSO', 80.47);

Switching to the query record.
Can you share its Average Cell Viability after 24 Hours (% DMSO)? I mean this compound: `Oc1ccc(CN2CCN(c3cccc(Cl)c3)CC2)c2cccnc12`
80.49

###

system: viable cells in culture; assay: Cell viability assay (CellTiter-Glo Luminescent Cell Viability Assay, ATP quantitation, percent of vehicle control)
Below, each entry is listed alongside its reported Average Cell Viability after 24 Hours (% DMSO).
Express the result in % DMSO but write the number alone.

INSERT INTO assay_data (molecule, tgt, reading_unit, observed) VALUES
  ('COC(=O)c1ccc(C(Nc2cc(C)ccn2)c2ccc3ccc(C)nc3c2O)cc1 (stereo not drawn) [compound 1008]', 'viable cells in culture', '% DMSO', 67.58),
  ('CC(=O)Nc1ccccc1NS(=O)(=O)c1cccs1 [compound 1391]', 'viable cells in culture', '% DMSO', 87.67),
  ('CC(=O)N1C(=O)C(=O)c2cc(Cl)ccc21 [compound 1336]', 'viable cells in culture', '% DMSO', 100.05),
  ('CCC(O)c1nc2ccccc2n1CCOc1cccc(OC)c1 (stereo not drawn) [compound 1253]', 'viable cells in culture', '% DMSO', 91.13),
  ('COc1ccc(-c2n[nH]c3c2C(c2ccc(O)cc2)N(c2ccc(Br)cc2)C3=O)cc1 (stereo not drawn) [compound 1193]', 'viable cells in culture', '% DMSO', 22.74);

Switching to the query record.
Can you share its Average Cell Viability after 24 Hours (% DMSO)? I mean this molecule: OCCN1CCN(c2ncnc3scc(-c4ccccc4)c23)CC1 [compound 1544]
104.59

###

test system: viable cells in culture; test: Cell viability assay (CellTiter-Glo Luminescent Cell Viability Assay, ATP quantitation, percent of vehicle control)
readout_type: Average Cell Viability after 24 Hours (% DMSO)
Express the result in % DMSO but write the number alone.

INSERT INTO results (compound, tgt, reading_unit, observed) VALUES
  ('O=C(N/N=C/c1cccc2cccnc12)c1ccc2c(c1)OCO2 [compound 1283]', 'viable cells in culture', '% DMSO', 68.25),
  ('S=C(Nc1ccc(Oc2ccccc2)cc1)Nc1ccc(Cl)cc1Cl [compound 1540]', 'viable cells in culture', '% DMSO', 68.10);

Switching to the query record.
Can you share its Average Cell Viability after 24 Hours (% DMSO)? I mean this compound: Cc1occc1C(=O)N/N=C/c1cc(I)cc(I)c1O [compound 1277]
68.53

Cited source for all entries: patent US12404304B1
